target: T1, human TMEM106B (human, UniProt Q9NUM4 2-274); assay: FACS HEK+huTMEM, 10 ug/ml;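 further: purified mouse IgG antibodies at 10 µg/ml bound to HEK293 cells transiently expressing human TMEM106B, measured by flow cytometry as median fluorescence intensity of propidium iodide negative live cells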
T1 construct: Full-length, on transiently transfected HEK293 cells, or natively expressed on HeLa, U251 and A549 cells; also called huTMEM106B; huTMEM
Field: MFI. Provide a value for each of the binders that follow.
Form rule: numeric answer, no unit written next to it.

Provide MFI value for the following binder: anti-TMEM106B antibody TM-10 (antibody, V domains shown) VH: QVQLQQSGAELVKPGASVKISCKGSGYAFSSYWMNWVKQRPGKGLEWIGQIYPGDGDTNYNGKFKGKATLTADKSSTTAYIHLSSLTSEDSAVYFCARWGHYDEAMDDWGQGTSVTVSS VL: DVVMTQTPLSLPVSLGDQASISCRSSQSLVHSNGKTYLHWYVQKPGQSPKLLIYKISNRFSGVPDRFSGSGSGTDFTLKISRVEAEDLGVYFCSQITHVPWTFGGGTKLESK
36500

Provide MFI value for the following binder: anti-TMEM106B antibody TM-2 (antibody, V domains shown) VH: HIQLVQSGPELKKPGETVKISCKASGYTFTEYPMHWVKQAPGKGFRWMGMIYTNTGEPTYAAEFKGRFAFSLETSASTGYLQINNLKNEDSATYFCVTAGYWGQGTLVTVSA VL: QIVLTQSPAILSASPGEKVTMTCRASSSVSYIHWFLQKPGSSPKPWIYATSNLASGVPFRFIGSGSGTSYSLTISGVEAEDSATYYCQQWSSNPSTFGAGTKLELK
55500

Provide MFI value for the following binder: anti-TMEM106B antibody TM-39 (antibody, V domains shown) VH: HVQRQQSGTELAKPGASVKLSCKTSGYTFTDYWMHWIKQRPGQGLEWIGFINPSSGYTKYNQNFKDKATLTADKSSSTAYMQLSSLTYEDSAVFYCAREAGSISDWYFDVWGTGTTVTVSS VL: DIVMTQAAPSIPVTPGESVSISCRSSKTLLNSNGNTYLYWFLQRPGQPPQLLIYRMSNLASGVPDRFSGSGSGTAFTLRISRVEAEDVGVYYCMQHLDYPYTFGGGTQLEIK
51900
